Quick reference: pIC50 of the listed items.
- SYSTEM NAME: Human COX II (Homo sapiens, UniProt P35354)
- Construct: A 2.0 kb fragment containing the coding region of either human or murine COX-I or human or murine COX-II
- Sequence (P35354 18-604): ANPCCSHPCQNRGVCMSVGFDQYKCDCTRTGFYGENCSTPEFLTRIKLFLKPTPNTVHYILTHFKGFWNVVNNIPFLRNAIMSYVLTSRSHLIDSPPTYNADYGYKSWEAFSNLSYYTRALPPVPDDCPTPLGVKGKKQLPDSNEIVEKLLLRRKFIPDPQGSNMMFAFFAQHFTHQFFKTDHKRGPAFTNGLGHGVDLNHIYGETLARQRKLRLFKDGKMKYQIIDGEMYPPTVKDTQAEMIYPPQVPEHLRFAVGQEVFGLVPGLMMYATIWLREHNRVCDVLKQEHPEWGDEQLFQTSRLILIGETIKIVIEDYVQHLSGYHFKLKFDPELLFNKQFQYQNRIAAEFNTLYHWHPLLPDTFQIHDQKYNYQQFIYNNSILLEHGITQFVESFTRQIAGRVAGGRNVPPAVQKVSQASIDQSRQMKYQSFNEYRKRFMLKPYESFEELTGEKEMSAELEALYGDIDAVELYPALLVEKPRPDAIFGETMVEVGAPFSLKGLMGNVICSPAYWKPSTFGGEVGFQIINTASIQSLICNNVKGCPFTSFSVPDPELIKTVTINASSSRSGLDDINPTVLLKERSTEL
- ASSAY: COX II activity in vitro (PGE2 ELISA, recombinant enzyme)
- EXPERIMENTAL CONTEXT: arachidonic acid 10 μM, pre-incubation 10-20 minutes; read-out: Human COX II ID50
Give only the number. pIC50 is defined as minus log10 of concentration in molar units.

// known answers, use as guide
| COMPOUND | pIC50 |
| --- | --- |
| CS(=O)(=O)c1ccc(-c2nc(C(F)(F)F)[nH]c2-c2cccnc2)cc1 | 5.62 |
| C=CCOCc1nc(-c2ccc(F)cc2)c(-c2ccc(S(C)(=O)=O)cc2)[nH]1 | 5.54 |
| CC(O)(c1nc(-c2ccc(F)cc2)c(-c2ccc(S(C)(=O)=O)cc2)[nH]1)C(F)(F)F (stereo not shown) | 5.23 |

From here, focus on the item given below.
QUERY: Record lookup: for Human COX II (Homo sapiens, UniProt P35354), what pIC50 belongs to COc1ccc(-c2[nH]c(C(F)(F)F)nc2-c2ccc(S(C)(=O)=O)cc2)cc1 ?
RESULT: 5.54

###

- SYSTEM NAME: Human COX I (Homo sapiens)
- Construct: A 2.0 kb fragment containing the coding region of either human or murine COX-I or human or murine COX-II
- Sequence (P23219 24-599): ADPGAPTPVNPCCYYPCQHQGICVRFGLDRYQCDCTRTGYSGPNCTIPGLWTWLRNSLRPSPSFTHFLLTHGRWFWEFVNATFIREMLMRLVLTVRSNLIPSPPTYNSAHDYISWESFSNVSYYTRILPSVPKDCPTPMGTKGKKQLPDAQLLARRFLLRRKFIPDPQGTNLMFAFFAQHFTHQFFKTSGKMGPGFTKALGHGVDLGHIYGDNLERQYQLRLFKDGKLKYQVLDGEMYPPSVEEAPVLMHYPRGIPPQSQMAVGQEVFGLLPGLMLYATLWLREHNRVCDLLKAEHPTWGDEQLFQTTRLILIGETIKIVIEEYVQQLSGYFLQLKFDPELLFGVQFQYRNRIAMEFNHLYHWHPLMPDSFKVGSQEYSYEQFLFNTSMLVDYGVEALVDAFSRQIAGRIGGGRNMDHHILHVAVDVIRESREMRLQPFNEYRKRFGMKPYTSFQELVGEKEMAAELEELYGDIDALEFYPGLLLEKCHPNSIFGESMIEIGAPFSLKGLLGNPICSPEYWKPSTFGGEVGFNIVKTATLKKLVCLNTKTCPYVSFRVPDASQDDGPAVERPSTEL
- ASSAY: COX I activity in vitro (PGE2 ELISA, recombinant enzyme)
- EXPERIMENTAL CONTEXT: arachidonic acid 10 μM, pre-incubation 10-20 minutes; read-out: Human COX I ID50
Quick reference: IC50 of the listed items.

// known answers, use as guide
| COMPOUND | SYSTEM NAME | IC50 |
| --- | --- | --- |
| CS(=O)(=O)c1ccc(-c2nc(C(F)(F)F)[nH]c2-c2ccc(F)c(F)c2)cc1 [Example 18] | Human COX I (Homo sapiens) | > 100 µM |
| CS(=O)(=O)c1ccc(-c2nc(-c3ccco3)[nH]c2-c2ccc(F)cc2)cc1 [Example 7] | Human COX I (Homo sapiens) | > 100 µM |
| CS(=O)(=O)c1ccc(-c2nc(C(F)(F)F)[nH]c2-c2cccs2)cc1 [Example 70] | Human COX I (Homo sapiens) | > 100 µM |

QUERY: GET /values?readout=IC50&item= NS(=O)(=O)c1ccc(-c2nc(C(F)(F)F)[nH]c2-c2ccc(F)cc2)cc1 [Example 21]
RESULT: 10.8 µM

###

Quick reference: IC50 of the listed items.
- SYSTEM NAME: Human COX II (Homo sapiens)
- Construct: A 2.0 kb fragment containing the coding region of either human or murine COX-I or human or murine COX-II
- ASSAY: COX II activity in vitro (PGE2 ELISA, recombinant enzyme)
- EXPERIMENTAL CONTEXT: arachidonic acid 10 μM, pre-incubation 10-20 minutes; read-out: Human COX II ID50
The number alone won't do; follow it with the unit.

QUERY: GET /values?readout=IC50&item= CS(=O)(=O)c1ccc(-c2nc(C(F)(F)F)[nH]c2-c2ccc(Cl)cc2)cc1 [Example 11]
RESULT: 400 nM

QUERY: GET /values?readout=IC50&item= CS(=O)(=O)c1ccc(-c2nc(C(F)(F)F)[nH]c2-c2ccc(Br)s2)cc1 [Example 47]
RESULT: 100 nM

QUERY: GET /values?readout=IC50&item= CS(=O)(=O)c1ccc(-c2nc(/C=C/c3ccccc3)[nH]c2-c2ccc(F)cc2)cc1 [Example 3]
RESULT: 200 nM

QUERY: GET /values?readout=IC50&item= CS(=O)(=O)c1ccc(-c2nc(C(F)(F)F)[nH]c2-c2cccs2)cc1 [Example 70]
RESULT: 1400 nM

QUERY: GET /values?readout=IC50&item= Cn1c(C(F)(F)F)nc(-c2ccc(S(C)(=O)=O)cc2)c1-c1ccc(F)cc1 [Example 44]
RESULT: 12800 nM

QUERY: GET /values?readout=IC50&item= CS(=O)(=O)c1ccc(-c2nc(C(F)(F)F)[nH]c2-c2ccc3ccccc3c2)cc1 [Example 14]
RESULT: 600 nM

QUERY: GET /values?readout=IC50&item= CS(=O)(=O)c1ccc(-c2nc(C(F)(F)F)[nH]c2-c2ccccc2Cl)cc1 [Example 12]
RESULT: 1300 nM

QUERY: GET /values?readout=IC50&item= Cc1nc(-c2ccc(S(C)(=O)=O)cc2)c(-c2ccc(F)cc2)[nH]1 [Example 6]
RESULT: 4600 nM

QUERY: GET /values?readout=IC50&item= CC(=O)n1c(C(F)(F)F)nc(-c2ccc(S(C)(=O)=O)cc2)c1-c1cc(C)cc(Cl)c1 [Example 58]
RESULT: 200 nM

QUERY: GET /values?readout=IC50&item= CS(=O)(=O)c1ccc(-c2nc(C(F)(F)F)[nH]c2-c2ccc(F)cc2F)cc1 [Example 17]
RESULT: 300 nM

QUERY: GET /values?readout=IC50&item= CN(C)c1ccc(-c2[nH]c(C(F)(F)F)nc2-c2ccc(S(C)(=O)=O)cc2)cc1 [Example 48]
RESULT: 8700 nM

QUERY: GET /values?readout=IC50&item= CS(=O)(=O)c1ccc(-c2[nH]c(S(=O)(=O)Cc3ccccc3)nc2-c2ccc(F)cc2)cc1 [Example 51]
RESULT: 1700 nM

QUERY: GET /values?readout=IC50&item= CS(=O)(=O)c1ccc(-c2nc(C(F)(F)F)[nH]c2-c2cccc(C#N)c2)cc1 [Example 63]
RESULT: 1300 nM

QUERY: GET /values?readout=IC50&item= CS(=O)(=O)c1ccc(-c2nc(-c3ccoc3)[nH]c2-c2ccc(F)cc2)cc1 [Example 20]
RESULT: 40700 nM

QUERY: GET /values?readout=IC50&item= CS(=O)(=O)c1ccc(-c2nc(-c3ccco3)[nH]c2-c2ccc(F)cc2)cc1 [Example 7]
RESULT: 4800 nM

QUERY: GET /values?readout=IC50&item= CC(F)(F)c1nc(-c2ccc(F)cc2)c(-c2ccc(S(C)(=O)=O)cc2)[nH]1 [Example 95]
RESULT: 2400 nM

QUERY: GET /values?readout=IC50&item= CS(=O)(=O)c1ccc(-c2nc(-c3cc4ccccc4o3)[nH]c2-c2ccc(F)cc2)cc1 [Example 4]
RESULT: 500 nM

###

Quick reference: melting point of the listed items.

// known answers, use as guide
| COMPOUND SMILES | MEASURED PROPERTY | RESULT |
| --- | --- | --- |
| COc1cc(-c2[nH]c(C(F)(F)F)nc2-c2ccc(S(C)(=O)=O)cc2)ccc1Cl | melting point | 233 to 234 °C |
| Cc1ccc(-c2[nH]c(C(F)(F)F)nc2-c2ccc(S(C)(=O)=O)cc2)cc1C | melting point | 279 to 284 °C |
| Cc1cc(Cl)cc(-c2[nH]c(C(F)(F)F)nc2-c2ccc(S(C)(=O)=O)cc2)c1 | melting point | 260 to 262 °C |
| CSc1ccc(-c2[nH]c(C(F)(F)F)nc2-c2ccc(S(C)(=O)=O)cc2)cc1Cl | melting point | 255 to 257 °C |
| CC(=O)n1c(C(F)(F)F)nc(-c2ccc(S(C)(=O)=O)cc2)c1-c1cc(C)cc(Cl)c1 | melting point | 257 °C |
| COc1c(C)cc(-c2[nH]c(C(F)(F)F)nc2-c2ccc(S(C)(=O)=O)cc2)cc1C | melting point | 265 to 267 °C |

QUERY: GET /values?readout=melting point&item= CS(=O)(=O)c1ccc(-c2[nH]c(C(=O)CCc3ccccc3)nc2-c2ccc(F)cc2)cc1
RESULT: 227 to 231 °C

QUERY: GET /values?readout=melting point&item= Cc1ccccc1-c1[nH]c(C(F)(F)F)nc1-c1ccc(S(C)(=O)=O)cc1
RESULT: 180 to 190 °C
